- System: Wnt stimulated TCF transcriptional activity, HEK293-TS 112 TCF reporter cell line
- test protocol: Tankyrase 1 Assay (Example 119): Wnt3A-stimulated TOPbrite TCF luciferase reporter
- Assay type: cell-based
- applied conditions: Compounds I-59 to I-144, procedure in Example 119 (0.5 ug/mL Wnt3A, 16 hours); read-out: TNKS1 (IC50)
pIC50: −log10 of the molar value.
measurement type: pIC50

>>> test_result("Cn1ncc2c(=O)[nH]c(N3CCC(c4ccccn4)CC3)nc21 [Compound I-111]")
7.08
>>> test_result("CCS(=O)(=O)c1ccc(-c2nc3c(cnn3C)c(=O)[nH]2)cc1 [Compound I-107]")
7.17
>>> test_result("COCCOc1cc(F)c(C2(O)CCN(c3nc4c(cnn4C)c(=O)[nH]3)CC2)c(F)c1 [Compound I-83]")
7.82
>>> test_result("Cn1ncc2c(=O)[nH]c(N3CCN(C4CCOCC4)CC3)nc21 [Compound I-130]")
6.50
>>> test_result("COCCOc1cc(F)c(N2CCN(c3nc4c(cnn4CC(O)CO)c(=O)[nH]3)CC2)c(F)c1 (centres unmarked) [Compound I-113]")
7.05
>>> test_result("Cn1ncc2c(=O)[nH]c(N3CCN(c4c(F)cc(OCC(O)CO)cc4F)CC3)nc21 (centres unmarked) [Compound I-68]")
8.15
>>> test_result("Cn1ccc(C2(C)CCN(c3nc4c(cnn4C)c(=O)[nH]3)CC2)n1 [Compound I-90]")
7.63
>>> test_result("Cn1ncc2c(=O)[nH]c(N3CCN(c4c(F)cc(OCCN5CCCCC5)cc4F)CC3)nc21 [Compound I-62]")
8.30
